# Test system: VCaP
# runDescription: Antiproliferative activity against human VCaP cells assessed as reduction in cell viability
# Type: functional, cell-based
experimentalReadout: pIC50
Give bare numbers, as −log10 of the molar value.

Ask | Short answer please: pIC50, VCaP, entry COc1ccccc1S(=O)(=O)Nc1ccc2c3c(cc(CCC(=O)NCCCCNc4cccc5c4C(=O)N(C4CCC(=O)NC4=O)C5=O)cc13)C(=O)N2C (stereo unspecified)
Reply | 6.60
